target: mouse fibroblast cell line transfected with the HER-2 oncogene (3T3/neu) (UniProt P04626, cells depend on it, species not given); test: Cell proliferation assay (SRB), 3T3/neu; assay type: cell-based; details: EGFR −, Her-2 +++; 2 days, SRB; read-out: CELL IC50 3T3/NEU (converted)
Recorded GI50 values for a group of compounds are listed next.
Field note: include the unit after the figure.

INSERT INTO assay_data (compound, result) VALUES
  ('CCOc1cc2ncc(C#N)c(Nc3ccc(Sc4nc(-c5ccccc5)cs4)c(C(F)(F)F)c3)c2cc1N [Example 68]', '4.47 µM'),
  ('COc1cc2c(Nc3ccc(Sc4nccn4C)c(Cl)c3)c(C#N)cnc2cc1OCCCn1ccnn1 [Example 73]', '1.78 µM'),
  ('COc1cc2ncc(C#N)c(Nc3ccc(NCc4cccnc4)c(Cl)c3)c2cc1[N+](=O)[O-] [Example 57]', '8.74 µM');

Let's switch to this compound now.
Entry under test: C=CC(=O)Nc1ccc2ncc(C#N)c(Nc3ccc(Sc4nccn4C)c(Cl)c3)c2c1 [Example 21] . Its GI50 was 1 µM

###

Consider the following molecules and their measured GI50 readings.
target: mouse fibroblast cell line transfected with the HER-2 oncogene (3T3/neu) (UniProt P04626, cells depend on it, species not given); experiment: Cell proliferation assay (SRB), 3T3/neu; assay type: cell-based; conditions: EGFR −, Her-2 +++; 2 days, SRB; read-out: CELL IC50 3T3/NEU (converted)

// solved cases for GI50 follow
INSERT INTO results (structurenotation, result) VALUES
  ('CCOc1cc2ncc(C#N)c(Nc3ccc4c(=O)[nH][nH]c(=O)c4c3)c2cc1OCC', '> 12 µM'),
  ('CCOc1cc2ncc(C#N)c(Nc3ccc(Sc4nc(C)cc(C)n4)c(Cl)c3)c2cc1[N+](=O)[O-]', '> 9.86 µM');

Next up:
The recorded GI50 for entry COCCOc1cc2ncc(C#N)c(Nc3ccc4cn[nH]c4c3)c2cc1OCCOC equals > 11.5 µM

###

system: SW620 cells; experiment: Cell proliferation assay (SRB), SW620; assay type: cell-based; details: EGFR −, Her-2 −; 2 days, SRB
// reported CELL IC50 SW620 for each item listed

INSERT INTO measurements (compound, targetdesc, result) VALUES
  ('COc1cc2ncc(C#N)c(Nc3ccc(N(Cc4cccnc4)C(C)=O)c(Cl)c3)c2cc1NC(C)=O [Example 50]', 'SW620 cells', '>5 µg/mL'),
  ('COc1cc2ncc(C#N)c(Nc3ccc(N(Cc4cccnc4)C(C)=O)c(Cl)c3)c2cc1N [Example 49]', 'SW620 cells', '>5 µg/mL');

Please turn your attention to the following entry.
Consider COc1cc2ncc(C#N)c(Nc3ccc(Sc4nc5ccccc5c(=O)[nH]4)c(Cl)c3)c2cc1NC(=O)/C=C/CN(C)C [Example 46] . Its measured CELL IC50 SW620 is >5 µg/mL
